# targetSystem: Histidine--tRNA ligase (Leishmania infantum)
# protocolText: Leishmania infantum Histidine tRNA synthetase (LdHisRS)
# Type: functional
# Set-up: scale not given: in the data most compounds retested in dose-response had high values
# conditionNotes: 30 µM
The whole screen tested about 69,000 compounds, of which about 420 (0.61%) showed an effect of 50% or more. For the sample, strong results were picked, then their nearest neighbours and some compounds at random.
Label Condition not met if Percent Effect falls below 20%; label Condition met in every other case.

- Cc1cccc(C(=O)N2CC[C@@H]3CN(c4ncccn4)CCO[C@@H]3C2)c1: Condition not met
- CCc1ccc(-c2cc(C(F)(F)F)nc(N3CCC(N)CC3)n2)cc1: Condition met
- Cc1ccc(C(=O)N2C[C@H]3CCC[C@@]3(COc3ccccn3)C2)nc1: Condition not met
- Cc1cnccc1CNCc1ccc(OC23CCCN(CC2)C3)cc1 (stereo unspecified): Condition met
- Cc1cnc(C(=O)N(CCN(C)C)Cc2ccc(Cl)cc2)cn1: Condition met
- Cn1cnc(S(=O)(=O)N2CCO[C@H]3[C@@H](OCC4CC4)CC[C@@H]32)c1: Condition not met
- c1ccc(Oc2ccc(OC34CCCN(CC3)C4)cc2)cc1 (stereo unspecified): Condition met
- COc1cc(C#N)ccc1OC12CCCN(CC1)C2 (stereo unspecified): Condition met
- c1ccc(Oc2cccc(OC34CCCN(CC3)C4)c2)cc1 (stereo unspecified): Condition met
- O=c1[nH]nc(CNCc2ccc(OC34CCCN(CC3)C4)cc2)[nH]1 (stereo unspecified): Condition not met
- CN1CCO[C@@H]2CN(C(=O)NCc3ccccc3)CC[C@@H]2C1: Condition not met

----------
# targetSystem: Histidine--tRNA ligase (Leishmania infantum)
# protocolText: Leishmania infantum Histidine tRNA synthetase (LdHisRS)
# Assay type: functional
# Set-up: scale not given: in the data most compounds retested in dose-response had high values
# conditionNotes: 30 µM
Hit rate of the full screen: of about 69,000 compounds, about 420 (0.61%) showed an effect of 50% or more. The sample holds strong results, similar compounds and a random draw of the others, so the mix is not that of the screen.
Item-by-item account of Percent Effect
valueType: Percent Effect (%)

• CC(C)[C@H](NS(C)(=O)=O)C(=O)NCc1cc(-c2ccco2)n[nH]1 = 54.3
• CN(C)c1nccc(NCc2cc(-c3ccco3)n[nH]2)n1 = 34.3
• C[C@H](NS(C)(=O)=O)C(=O)NCc1cc(-c2ccco2)n(CC(F)(F)F)n1 = -80
• Cc1cc(CN2CCc3nn(C)c(=O)cc3C2)on1 = 103
• COc1cccc(C2CC(=O)Nc3nc(N4CCOCC4)sc32)c1OC (stereo not drawn) = 111
• CC1=N[C@@]2(CC[C@@H]3CN(S(=O)(=O)N(C)C)C[C@@H]32)C(=O)N1CC(C)C = 9.02
• COc1ccccc1C1CC(=O)Nc2nc(N3CCCCC3)sc21 (stereo not drawn) = 118
• O=C1C[C@H]2CC[C@@H](CN1)N2C(=O)CCc1ccccc1 = 8.39
• CCCn1nc2c(cc1=O)CN(Cc1ccccn1)CC2 = 75.8
• CC(C)(C)c1ccc(OCC(=O)O)c(CN2C[C@H]3C[C@H](O)C[C@H]3C2)c1 = 14.5
• COc1ccc(CN2C[C@@H]3OCCN(CCN4CCCC4)[C@@H]3C2)cc1 = 0.917
• O=C(c1ccco1)N1C[C@@H]2[C@@H](C1)OCC(=O)N2Cc1cccnc1 = 20.4
• CCCn1nc2c(cc1=O)CN(Cc1nc(CCOC)no1)CC2 = 48.1
• O=C(c1ccncc1)N1CC[C@@H]2[C@@H](CC1)OCCN2c1cccnc1 = 17.5
• COc1ccccc1C1CC(=O)Nc2c1c(=O)[nH]n2C(C)C (stereo not drawn) = 16.5
• COc1ccccc1C1CC(=O)Nc2c1c(=O)[nH]n2C1CCCC1 (stereo not drawn) = 14.3
• CCCn1nc2c(cc1=O)CN(Cc1nc(C)c3ccccc3n1)CC2 = 27.1
• Cc1cc(CN2CCc3nn(C)c(=O)cc3C2)no1 = 45.5
• O=c1[nH]nc(-c2cccs2)c2sc(N3CCOCC3)nc12 = 11.9
• CC(C)[C@H](NS(C)(=O)=O)C(=O)NCc1cc(-c2ccccc2)n[nH]1 = 17.1
• O=C1N(Cc2ccccn2)C[C@H]2CN(S(=O)(=O)c3ccccc3)CCN12 = 24.3
• Cc1cc(CN2CCc3cncnc3C2)on1 = 24
• Cc1cnc(C(=O)N2C[C@H]3CN(Cc4cccs4)C[C@H]3C2)cn1 = -3.19

Sourced from ChEMBL document CHEMBL3988442
